Entries and their Colony Color values follow.
# Tested on: S pyogenes (stpy)
# Procedure Details: Example 3: colony color on chromogenic TSA II with 5% sheep blood (chromogen in medium)
# Assay type: cell-based
# Settings: stpy 51339; CO2; 21 h
Output spec: single numeric token, no unit.

These recorded examples may help you get a feel for the data.
OC[C@H]1O[C@@H](Oc2c[nH]c3ccc(Br)c(Cl)c23)[C@H](O)[C@@H](O)[C@H]1O | 0
OC[C@H]1O[C@@H](Oc2c[nH]c3ccc(Br)c(Cl)c23)[C@H](O)[C@@H](O)[C@@H]1O [X-Glucoside, 5-Br-4-Cl-3-indolyl-β-D-glucopyranoside] | 0

For the next question, use this compound.
*Q* Which Colony Color is reported for this compound? "NC1CCCCC1.O=C(O)[C@H]1O[C@@H](Oc2c[nH]c3cc(Cl)ccc23)[C@H](O)[C@@H](O)[C@@H]1O"
*A* 0
